Biological target: cynomolgus monkey complement component C3 (cynomolgus monkey, UniProt P01024 24-1663 (human entry))
Sequence (P01024 other isoform, or with tags, fused parts or gaps): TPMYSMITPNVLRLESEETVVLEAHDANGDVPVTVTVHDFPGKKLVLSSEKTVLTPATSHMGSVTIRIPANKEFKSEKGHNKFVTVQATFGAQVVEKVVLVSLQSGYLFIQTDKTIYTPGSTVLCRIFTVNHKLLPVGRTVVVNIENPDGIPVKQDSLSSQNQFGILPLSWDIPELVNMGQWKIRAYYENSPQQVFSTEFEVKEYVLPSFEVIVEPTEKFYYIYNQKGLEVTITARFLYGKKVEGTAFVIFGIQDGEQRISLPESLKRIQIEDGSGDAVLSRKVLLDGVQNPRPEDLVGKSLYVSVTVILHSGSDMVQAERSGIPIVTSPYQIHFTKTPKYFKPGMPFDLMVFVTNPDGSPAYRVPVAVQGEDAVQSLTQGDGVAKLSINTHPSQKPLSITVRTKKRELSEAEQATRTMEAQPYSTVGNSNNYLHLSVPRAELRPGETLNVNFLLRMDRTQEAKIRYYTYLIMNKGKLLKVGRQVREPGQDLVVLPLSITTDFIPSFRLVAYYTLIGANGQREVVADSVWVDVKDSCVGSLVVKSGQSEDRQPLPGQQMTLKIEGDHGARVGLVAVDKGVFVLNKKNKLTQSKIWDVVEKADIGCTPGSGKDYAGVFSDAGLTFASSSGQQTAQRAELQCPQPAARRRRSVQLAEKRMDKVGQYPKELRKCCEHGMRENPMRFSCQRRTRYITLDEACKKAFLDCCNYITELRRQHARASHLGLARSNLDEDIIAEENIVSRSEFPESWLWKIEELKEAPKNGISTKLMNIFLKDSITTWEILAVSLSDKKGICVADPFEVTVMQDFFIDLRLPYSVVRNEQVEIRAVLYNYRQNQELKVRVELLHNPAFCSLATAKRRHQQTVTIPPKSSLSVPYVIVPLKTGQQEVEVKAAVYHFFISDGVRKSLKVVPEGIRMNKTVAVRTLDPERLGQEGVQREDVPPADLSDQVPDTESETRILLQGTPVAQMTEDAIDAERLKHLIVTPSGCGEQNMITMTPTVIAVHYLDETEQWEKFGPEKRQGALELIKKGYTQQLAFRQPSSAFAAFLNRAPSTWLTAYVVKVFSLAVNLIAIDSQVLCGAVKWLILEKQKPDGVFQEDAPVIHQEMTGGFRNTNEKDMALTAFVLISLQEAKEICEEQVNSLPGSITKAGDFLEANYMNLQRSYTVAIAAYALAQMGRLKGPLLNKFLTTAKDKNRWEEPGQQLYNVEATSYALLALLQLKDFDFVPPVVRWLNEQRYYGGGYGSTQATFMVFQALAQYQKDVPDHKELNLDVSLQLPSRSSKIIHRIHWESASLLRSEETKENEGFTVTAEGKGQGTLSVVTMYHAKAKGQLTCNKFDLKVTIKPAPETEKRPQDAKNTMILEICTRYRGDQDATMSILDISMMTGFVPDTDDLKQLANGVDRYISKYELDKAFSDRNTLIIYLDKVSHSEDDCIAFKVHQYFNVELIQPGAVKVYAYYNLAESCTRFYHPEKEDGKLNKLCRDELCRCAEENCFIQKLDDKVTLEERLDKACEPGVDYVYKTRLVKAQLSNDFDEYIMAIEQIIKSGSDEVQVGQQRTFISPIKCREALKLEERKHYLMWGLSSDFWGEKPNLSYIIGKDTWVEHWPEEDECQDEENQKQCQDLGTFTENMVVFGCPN
Experiment: cell-based or functional assay
Measured Hemolytic Assay IC50, Cyno AP values are reported for all entries that follow.
Answer with a number only, understood to be in nM.

Please review the entries below; each comes with its answer.
binder="antibody 15C12 (antibody, V domains shown, Mouse hybridoma antibody) VH: EIQLQQSGAELEKPGASVKISCKASGYSFTGYNMHWVKQSHGKSLEWIGNINPYYGTTNSNQKFEDKATLTVDKSSSTAYMQLNSLTSEDSAVYYCARGIYYYGTGYPYFDFWGQGTTLTVSS VL: DIQMTQTTSSLSASLGDRVTISCRASQDINNYLNWYLQKPDGTVKLLIYYTSRLHSGVPSRFSGSGSGTDYSLTISNLEQEDLATYFCQQGITLPWTFGGGTKLEIK" measurement_type="Hemolytic Assay IC50, Cyno AP" quantitative_readout=8.8
binder="antibody 3D8 (antibody, V domains shown, Mouse hybridoma antibody raised against human C3) VH: EIQLQQSGAELVKPGASVKISCKASGYSFTGYNMNWVKQSHGKSLEWIGNINPYYGSTNYNQKFKGKATLTVDKSSTTAYMQLDSLTSEDSAVYYCARGYYGGNYPFAYWGQGTLVTVSA VL: DIQMTQSPASLSASVGETVTITCRASENIYSYLAWYQQKQGKSPQLLVYNAKTLAEGVPSRFSGSGSGTQFSLKINSLQPEDFGSYYCQHYYGTPYTFGGGSKVEIK" measurement_type="Hemolytic Assay IC50, Cyno AP" quantitative_readout=5.5

Query binder follows.
Entry antibody 63A3 (antibody, V domains shown, Mouse hybridoma antibody) VH: DVQLQESGPGLVKPSQSLSLTCSVTGYSITSGYYWNWIRQFPGNKLEWMGYIRYDGSNNYNPSLKNRISITRDTSKNQVFLKLNSVTPEDTATYYCARHYGYDGGAFDFWGQGTTLTVSS VL: DIQMTQSPASLSASVGETVTITCRTSENIYNYLVWYQQKQGKSPQLLVYNAKTLEEGVPSRFSGSGSGTQFSLKVNSLQPEDFGSYYCQHHYGTPFTFGSGTKLEIK — recorded Hemolytic Assay IC50, Cyno AP = 3.4
